# assay_target: HIV-1 pseudovirus SC05.8C11.2344 (HIV-1)
# assay_explanation: cell-based or functional assay
measured_endpoint: IC80 (neutralization in TZM.bl cells) (µg/mL)
Form entry: value (µg/mL) — number only.

Some entries whose results are on file:
MS-85 (antibody, V domains shown) VH: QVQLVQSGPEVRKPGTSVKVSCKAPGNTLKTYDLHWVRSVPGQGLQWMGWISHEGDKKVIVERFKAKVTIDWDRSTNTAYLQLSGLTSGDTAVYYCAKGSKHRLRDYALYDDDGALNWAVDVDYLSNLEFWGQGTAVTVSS VL: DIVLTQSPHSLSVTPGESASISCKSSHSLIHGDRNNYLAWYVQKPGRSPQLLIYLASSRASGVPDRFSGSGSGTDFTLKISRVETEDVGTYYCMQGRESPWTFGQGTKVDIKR = 1.49
MS-92 (antibody, V domains shown) VH: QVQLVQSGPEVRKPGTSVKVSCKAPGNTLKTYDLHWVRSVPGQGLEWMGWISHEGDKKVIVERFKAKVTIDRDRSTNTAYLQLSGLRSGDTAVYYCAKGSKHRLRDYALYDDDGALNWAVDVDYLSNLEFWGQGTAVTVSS VL: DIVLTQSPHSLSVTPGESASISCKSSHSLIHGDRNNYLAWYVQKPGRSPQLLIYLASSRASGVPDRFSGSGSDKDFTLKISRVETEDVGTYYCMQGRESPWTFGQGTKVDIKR = 4.09
MS-78 (antibody, V domains shown) VH: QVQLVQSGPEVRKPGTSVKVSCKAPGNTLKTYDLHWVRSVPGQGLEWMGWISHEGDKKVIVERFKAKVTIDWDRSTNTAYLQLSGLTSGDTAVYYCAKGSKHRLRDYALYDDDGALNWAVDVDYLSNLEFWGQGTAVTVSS VL: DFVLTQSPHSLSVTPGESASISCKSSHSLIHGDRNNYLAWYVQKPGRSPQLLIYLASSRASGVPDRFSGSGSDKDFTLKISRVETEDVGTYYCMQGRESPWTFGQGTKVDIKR = 2.26
MS-89 (antibody, V domains shown) VH: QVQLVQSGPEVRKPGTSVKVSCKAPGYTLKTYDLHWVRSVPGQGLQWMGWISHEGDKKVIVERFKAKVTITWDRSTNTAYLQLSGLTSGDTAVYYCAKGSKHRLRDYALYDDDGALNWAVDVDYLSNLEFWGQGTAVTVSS VL: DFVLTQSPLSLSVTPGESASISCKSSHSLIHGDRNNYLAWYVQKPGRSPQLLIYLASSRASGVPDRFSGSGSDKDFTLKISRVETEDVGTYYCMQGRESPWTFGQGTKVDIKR = 3.75

# input for lookup
Task: Requested read-out: IC80 (neutralization in TZM.bl cells). Entry: MS-91 (antibody, V domains shown) VH: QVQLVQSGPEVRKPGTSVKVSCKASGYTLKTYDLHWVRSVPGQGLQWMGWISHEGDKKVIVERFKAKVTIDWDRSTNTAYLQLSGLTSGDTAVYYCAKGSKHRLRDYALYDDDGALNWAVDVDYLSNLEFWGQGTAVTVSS VL: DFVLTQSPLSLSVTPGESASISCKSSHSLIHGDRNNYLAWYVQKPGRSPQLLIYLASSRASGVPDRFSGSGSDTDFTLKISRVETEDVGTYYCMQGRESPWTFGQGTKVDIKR
Output: 2.84
